Entry source: the supplement of paper PMC11061612

Test system: NCI-H1975 (Lung Adenocarcinoma);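 also: after 72 h of two-drug dosing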
ASSAY_COMMENT: Bliss excess, mean over the matrix (fraction); higher = more synergy

- MOLECULE: "Cc1cc2ncnn2cc1Nc1ncc2c(n1)n(C1CCOCC1)c(=O)n2C [AZD7648] + O=C(c1cc(Cc2n[nH]c(=O)c3ccccc23)ccc1F)N1CCN(C(=O)C2CC2)CC1 [Olaparib] (first compound max 10 µM, 7x7, partner max 10 µM)"
  Bliss excess: 0.0135
- MOLECULE: "CC(=O)c1c(C)c2cnc(Nc3ccc(N4CCNCC4)cn3)nc2n(C2CCCC2)c1=O [Palbociclib] + CC1(C)CCC(CN2CCN(c3ccc(C(=O)NS(=O)(=O)c4ccc(NCC5CCOCC5)c([N+](=O)[O-])c4)c(Oc4cnc5[nH]ccc5c4)c3)CC2)=C(c2ccc(Cl)cc2)C1 [Venetoclax] (first compound max 10 µM, 7x7, partner max 1 µM)"
  Bliss excess: -0.0254
- MOLECULE: "CN(CCO)CC[C@H](CSc1ccccc1)Nc1ccc(S(=O)(=O)NC(=O)c2ccc(N3CCC([C@@H](O)c4ccccc4-c4ccc(Cl)cc4)CC3)cc2)cc1S(=O)(=O)C(F)(F)F [AZD4320] + C[C@@H](Nc1cc(F)cc(F)c1)c1cc(C(=O)N(C)C)cc2c(=O)cc(N3CCOCC3)oc12 [AZD8186] (first compound max 1 µM, 7x7, partner max 3 µM)"
  Bliss excess: 0.0261
